Where these numbers come from: ChEMBL document CHEMBL1121393

System: Klebsiella pneumoniae
Protocol description: Tested in vitro for antibacterial activity against Klebsiella pneumoniae
Type: functional
Measured parameter: MIC (µg/mL)
Quick note: give the figure in µg/mL, leave out the unit.

Reference set, count: 5
Molecule	Tested target	Observed value
CC1=CC(=O)[C@@]2(O[C@@H]2C(=O)CC(C)C)C(=O)N1	Klebsiella pneumoniae	6.3
CC1=CC(=O)[C@@]2(O[C@H]2C(=O)CC(C)C)C(=O)N1C	Klebsiella pneumoniae	100
CC(C)CC(=O)C1OC12C(=O)CC(C)(C)CC2=O (stereo not given)	Klebsiella pneumoniae	50
CC1=CC(=O)C2(OC2C(=O)CC(C)C)C(=O)N1 (stereo not given)	Klebsiella pneumoniae	4.7
CC1=CC(=O)[C@@]2(O[C@H]2C(=O)CC(C)C)C(=O)N1	Klebsiella pneumoniae	6.3

Now consider a different molecule.
Item: "CC1=CC(=O)[C@@]2(O[C@@H]2C(=O)CC(C)C)C(=O)N1C" Test system: Klebsiella pneumoniae Read-out: MIC Value: ?
50
